Assay: qHTS assay to identify small molecule agonists of the vitamin D receptor (VDR) signaling pathway - cell viability counter screen (AID 743224); also: nearly all actives have a fitted effect of over 50% in size
Conditions: VDR-bla HEK293T viability, CellTiter-Glo luminescence, 16 h; series mostly up to 62.6 µM
Results filed as inconclusive are left out. Calls of active or inactive are those of the source. Calls follow the shape of the dose curve; as a rule, active = well fitted cell-killing curve with a large enough effect in the repeat runs; inconclusive = weak or mixed curves, or effect the other way; inactive = no such curve, though single readings can be large or run the other way.
Output constraint: value belongs to Y (active), N (inactive)

Query: I'd appreciate the recorded outcome for "O=S(=O)(O)c1ccc2nc(-c3ccccc3)[nH]c2c1" from this test.
Result: Y

Query: I'd appreciate the recorded outcome for "CCc1ccc(C(c2ccc(CC)cc2)C(Cl)Cl)cc1" from this test.
Result: N

Query: I'd appreciate the recorded outcome for "CC(C)CCOC(=O)c1ccc(N(C)C)cc1" from this test.
Result: N

Query: I'd appreciate the recorded outcome for "Cc1cc(C2(c3cc(C)c(O)cc3C)OS(=O)(=O)c3ccccc32)c(C)cc1O" from this test.
Result: N

Query: I'd appreciate the recorded outcome for "CCCCCCCCCCCCCCCCCl" from this test.
Result: N

Query: I'd appreciate the recorded outcome for O=c1n(CC2CO2)c(=O)n(CC2CO2)c(=O)n1CC1CO1 (stereo unspecified) from this test.
Result: N

* * *

Assay: qHTS assay to identify small molecule antagonists of the estrogen receptor alpha (ER-alpha) signaling pathway using the BG1 cell line (AID 743080);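 also: BG1 cells stimulated with 17beta-estradiol alongside compound; nearly all actives have a fitted effect of over 25% in size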
Details: BG1Luc4E2 ERE-luciferase antagonist mode, luminescence; series mostly up to 70.3 µM
Inconclusive results are not listed. Active and inactive are the calls of the source. Calls follow the shape of the full dose curve.
Output constraint: value belongs to True (active), False (inactive)

Query: I'd appreciate the recorded outcome for "Nc1ccc(O)cc1" from this test.
Result: False

* * *

Test: qHTS assay to identify small molecule antagonists of the constitutive androstane receptor (CAR) signaling pathway - cell viability counter screen (AID 1224837); also: nearly all actives have a fitted effect of over 45% in size
Conditions: HepG2-CYP2B6-hCAR viability, CellTiter-Fluor, 23 h, co-treated with 50 nM CITCO; series mostly up to 92.4 µM
Results filed as inconclusive are left out. Active and inactive are the calls of the source. Calls come from the whole dose curve; as a rule, active = well fitted cell-killing curve with a large enough effect in the repeat runs; inconclusive = weak or mixed curves, or effect the other way; inactive = flat fitted curve, though single readings scatter.
Readout Type: activity change, negative = cytotoxicity

Here is how some compounds turned out for activity change, negative = cytotoxicity.
c1ccc2c(c1)-c1cccc3c1c-2cc1ccccc13 :: inactive
CC(=O)N[C@@H](CS)C(=O)O :: inactive
CCCCC(CC)COC(=O)CC(C(=O)OCC(CC)CCCC)S(=O)(=O)O (centres undefined) :: inactive
CC(C)CCOC(=O)c1ccc(N(C)C)cc1 :: inactive
C=CC(=O)OCCCCCCCC :: inactive
O=C(Oc1ccccc1)c1ccccc1O :: inactive
Cc1cccc2n[nH]nc12 :: inactive
c1ccc2c(c1)CCCC2C1=NCCN1 (centres undefined) :: inactive
c1cnc2cc3c(cc2n1)C1CNCC3C1 :: inactive
CCCCOCCOC(=O)c1ccccc1C(=O)OCCOCCCC :: inactive

Query: Quick one: activity change, negative = cytotoxicity for CCCCCCC(O)CCCCCCCCCCC(=O)O (centres undefined) ?
Result: inactive

Query: Quick one: activity change, negative = cytotoxicity for "CCN(CC)CCOc1ccc(/C(=C(\Cl)c2ccccc2)c2ccccc2)cc1" ?
Result: inactive

Query: Quick one: activity change, negative = cytotoxicity for "CCC(CO)(CO)COCC(CC)(CO)CO" ?
Result: inactive

Query: Quick one: activity change, negative = cytotoxicity for "O=C(O)CCc1ccccc1" ?
Result: inactive

* * *

Assay: qHTS assay to identify small molecule agonists of the farnesoid-X-receptor (FXR) signaling pathway - cell viability counter screen (AID 743218); also: nearly all actives have a fitted effect of over 45% in size
Conditions: FXR-bla HEK293T viability, CellTiter-Glo luminescence, 16 h; series mostly up to 62.6 µM
From the text: U.S. Tox21 Program National Center for Advancing Translational Sciences [NCATS] NIH Chemical Genomics Center [NCGC] U.S. Environmental Protection Agency [EPA] National Institutes of Environmental Health Sciences [NIEHS] National Toxicology Program [NTP] U.S. Food and Drug Administration [FDA] Tox21 Assay Overview: The farnesoid-X-receptor (FXR), a nuclear hormone receptor, is highly expressed in liver, intestine, kidney and adrenal cortex. […]
Records with an inconclusive call do not appear. Calls of active or inactive are those of the source. Calls follow the shape of the dose curve; as a rule, active = well fitted cell-killing curve with a large enough effect in the repeat runs; inconclusive = weak or mixed curves, or effect the other way; inactive = no such curve, though single readings can be large or run the other way.
Output constraint: value belongs to 1.0 = active, 0.0 = inactive

Answered cases to consult:
Cc1cccc(O)c1C :: 0.0
CCOC(=O)C(C)C(C)=O (centres undefined) :: 0.0
C=CC(=O)OCCCCCCOC(=O)C=C :: 0.0

Query: I'd appreciate the recorded outcome for "Cc1cc(Cc2cc(C)cc(C(C)(C)C)c2O)c(O)c(C(C)(C)C)c1" from this test.
Result: 1.0

Query: I'd appreciate the recorded outcome for "CC(=O)O[C@]1(C(C)=O)CC[C@H]2[C@@H]3C[C@H](C)C4=CC(=O)CC[C@]4(C)[C@H]3CC[C@@]21C" from this test.
Result: 0.0

Query: I'd appreciate the recorded outcome for "N[C@@H]1CONC1=O" from this test.
Result: 0.0

Query: I'd appreciate the recorded outcome for "NNCCc1ccccc1" from this test.
Result: 0.0

Query: I'd appreciate the recorded outcome for "c1ccc2n[nH]nc2c1" from this test.
Result: 0.0

Query: I'd appreciate the recorded outcome for "CC(C)(O)CCC(C)(C)O" from this test.
Result: 0.0

* * *

Molecular target: Peroxisome proliferator-activated receptor delta (Homo sapiens) (UniProt Q03181)
Sequence (Q03181 whole entry, looked up): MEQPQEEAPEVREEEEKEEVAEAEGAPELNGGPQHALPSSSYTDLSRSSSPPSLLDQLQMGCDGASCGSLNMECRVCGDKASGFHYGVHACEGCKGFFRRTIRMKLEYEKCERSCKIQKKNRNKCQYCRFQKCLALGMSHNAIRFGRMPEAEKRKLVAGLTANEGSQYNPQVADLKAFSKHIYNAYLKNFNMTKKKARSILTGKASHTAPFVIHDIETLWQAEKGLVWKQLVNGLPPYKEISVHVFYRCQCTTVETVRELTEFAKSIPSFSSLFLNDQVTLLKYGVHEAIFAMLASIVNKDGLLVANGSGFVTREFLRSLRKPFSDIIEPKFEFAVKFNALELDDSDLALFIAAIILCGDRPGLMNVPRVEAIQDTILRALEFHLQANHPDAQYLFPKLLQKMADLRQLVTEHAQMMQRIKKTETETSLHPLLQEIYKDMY
Assay: qHTS assay to identify small molecule agonists of the peroxisome proliferator-activated receptor delta (PPARd) signaling pathway (AID 743212);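 also: HEK293H cells with PPARd UAS beta-lactamase reporter GeneBLAzer system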
Details: HEK293H PPARd-UAS-bla, beta-lactamase FRET ratio, 17 h; series mostly up to 62.6 µM
Records with an inconclusive call do not appear. Active and inactive are the calls of the source. Calls follow the shape of the full dose curve.
Readout Type: outcome

Here is how some molecules turned out for outcome.
NNCCc1ccccc1 :: inactive
CC[C@]1(O)C[C@@H]2CN(CCc3c([nH]c4ccccc34)[C@@](C(=O)OC)(c3cc4c(cc3OC)N(C)[C@H]3[C@@](O)(C(=O)OC)[C@H](OC(C)=O)[C@]5(CC)C=CCN6CC[C@]43[C@@H]65)C2)C1 :: inactive
CCCCOCCOC(=O)c1ccccc1C(=O)OCCOCCCC :: inactive
BrC1CCC(Br)C(Br)CCC(Br)C(Br)CCC1Br (configuration not stated) :: inactive
CCC[C@H](N[C@@H](C)C(=O)N1[C@H](C(=O)O)C[C@@H]2CCCC[C@@H]21)C(=O)OCC :: inactive
O=C(O)CCc1ccccc1 :: inactive

Query: Quick one: outcome for "CC(=O)C1=C(C)[C@@H]2C[C@@]3(C1)[C@H](C)CC[C@H]3C2(C)C" ?
Result: inactive

Query: Quick one: outcome for C=C(C)C1CC=C(C)C(OC(C)=O)C1 (configuration not stated) ?
Result: inactive

Query: Quick one: outcome for "C=CC(=O)OCCCCCCCC" ?
Result: inactive

Query: Quick one: outcome for "C1COC(NC(C2CC2)C2CC2)=N1" ?
Result: inactive

Query: Quick one: outcome for "c1cnc2cc3c(cc2n1)C1CNCC3C1" ?
Result: inactive

Query: Quick one: outcome for "COc1cc(C(=S)N2CCOCC2)ccc1O" ?
Result: inactive

Query: Quick one: outcome for "OCC(CO)N[C@H]1C[C@](O)(CO)[C@@H](O)[C@H](O)[C@H]1O" ?
Result: inactive

Query: Quick one: outcome for "CCn1c2ccccc2c2cc(N)ccc21" ?
Result: inactive

Query: Quick one: outcome for CC1COc2c(N3CCN(C)CC3)c(F)cc3c(=O)c(C(=O)O)cn1c23 (configuration not stated) ?
Result: inactive

Query: Quick one: outcome for "Oc1c(Cl)cc(Cl)cc1Sc1cc(Cl)cc(Cl)c1O" ?
Result: inactive

Query: Quick one: outcome for "CC(=O)CC(C)=O" ?
Result: inactive

Query: Quick one: outcome for "O=C(O)c1cccc(C(=O)O)c1" ?
Result: inactive

Query: Quick one: outcome for "CC(=O)CC(=O)Nc1ccc2[nH]c(=O)[nH]c2c1" ?
Result: inactive

Query: Quick one: outcome for "O=Cc1ccc(Cl)cc1" ?
Result: inactive

* * *

Assay: qHTS RealTime-Glo MT Cell Viability Assay in HEK293 cells - 24 hour (AID 1224886); also: nearly all actives have a fitted effect of over 50% in size; also: potency is read from the fitted curve at half-maximal effect
Conditions: RealTime-Glo luminescence; series mostly up to 76.8 µM
From the text: National Center for Advancing Translational Sciences [NCATS] NIH Chemical Genomics Center [NCGC] U.S. Environmental Protection Agency [EPA] National Institutes of Environmental Health Sciences [NIEHS] National Toxicology Program [NTP] U.S. Food and Drug Administration [FDA] Measure of cell viability is critical in the cell-base assay. Analysis of cell viability is necessary for the characterization of cell responses to cytotoxic drugs and environmental stress. […]
Results filed as inconclusive are left out. Active and inactive are the calls of the source. The call rests on the fitted dose curve; in most records, active means well fitted cell-killing curve with a large enough effect in the repeat runs; inconclusive means weak or mixed curves, or effect the other way; inactive means flat fitted curve, though single readings scatter.
Readout Type: Potency

Here is how some molecules turned out for Potency.
CCOC(=O)C(C)C(C)=O (stereo not drawn) :: inactive
CC(=O)C1=C(C)[C@@H]2C[C@@]3(C1)[C@H](C)CC[C@H]3C2(C)C :: inactive
CC(=O)CC(C)=O :: inactive
O=C(O)CP(=O)(O)O :: inactive
COc1ccc(COC(C)=O)cc1 :: inactive

Query: Quick one: Potency for "O=Cc1ccc(Cl)cc1" ?
Result: inactive

Query: Quick one: Potency for "CCC[C@H](N[C@@H](C)C(=O)N1[C@H](C(=O)O)C[C@@H]2CCCC[C@@H]21)C(=O)OCC" ?
Result: inactive

Query: Quick one: Potency for "Nc1nc(=S)c2[nH]cnc2[nH]1" ?
Result: 21.9 µM (active)
